# studySystem: Genome polyprotein (Dengue virus type 2 (strain 16681-PDK53))
# measurementNotes: flavivirus cap methylation enzyme inhibition – biochemical, confirmation dose response, primary screen (AID 588689)
# cond: Dengue-2 NS5 methyltransferase capping enzyme assay, at 25 µM, active compounds read high
Among all 340,000 compounds or so, about 1,000 (0.29%) were called active. These entries were drawn from the full list. Entries with a potency or affinity are not part of this list.
Overview of reported inhibition across a group of compounds:

{"compound": "Cc1[nH]n(C(C)(C)C)c(=O)c1Sc1ccccc1", "inhibition / %": -11.6}
{"compound": "COc1ccccc1N1CCN(CC(=O)Nc2ccc(CN3CCCCC3)cc2)CC1", "inhibition / %": -7.05}
{"compound": "COc1ccc(-c2ccc(NS(=O)(=O)c3ccc([N+](=O)[O-])cc3)cc2)nn1", "inhibition / %": 5.43}
{"compound": "O=S(=O)(O)c1cc(O)c(N=Nc2ccc(O)cc2O)c2ccccc12", "inhibition / %": 22.4}
{"compound": "CC1=NN(Cc2ccccc2)C(=O)C1C(c1ccncc1)C(C#N)C#N (stereo unspecified)", "inhibition / %": 13.5}
{"compound": "CC1=NNC(=O)C1C(c1ccccc1)C(C#N)C#N (stereo unspecified)", "inhibition / %": -4.84}
{"compound": "NC(=O)c1ccc(NCCCN2CCOCC2)c([N+](=O)[O-])c1", "inhibition / %": -4.51}
{"compound": "CCOC(=O)c1nc[nH]c1C", "inhibition / %": -4.86}
{"compound": "CCCN1CCN(C(=O)c2ccc(CS(=O)c3ccc(F)cc3)o2)CC1 (stereo unspecified)", "inhibition / %": -6.18}
{"compound": "Cc1[nH]n(-c2ccccc2)c(=O)c1Sc1ccc(Cl)cc1", "inhibition / %": 13.9}
{"compound": "Oc1ccc(N=Nc2ccc(Br)cc2)c(O)c1", "inhibition / %": 7.83}

// provenance: PubChem BioAssay AID588689
